# tgt: EGFR (Homo sapiens)
# Construct: purchased Cell Signaling Technology, Inc
# Sequence (P00533 25-1210): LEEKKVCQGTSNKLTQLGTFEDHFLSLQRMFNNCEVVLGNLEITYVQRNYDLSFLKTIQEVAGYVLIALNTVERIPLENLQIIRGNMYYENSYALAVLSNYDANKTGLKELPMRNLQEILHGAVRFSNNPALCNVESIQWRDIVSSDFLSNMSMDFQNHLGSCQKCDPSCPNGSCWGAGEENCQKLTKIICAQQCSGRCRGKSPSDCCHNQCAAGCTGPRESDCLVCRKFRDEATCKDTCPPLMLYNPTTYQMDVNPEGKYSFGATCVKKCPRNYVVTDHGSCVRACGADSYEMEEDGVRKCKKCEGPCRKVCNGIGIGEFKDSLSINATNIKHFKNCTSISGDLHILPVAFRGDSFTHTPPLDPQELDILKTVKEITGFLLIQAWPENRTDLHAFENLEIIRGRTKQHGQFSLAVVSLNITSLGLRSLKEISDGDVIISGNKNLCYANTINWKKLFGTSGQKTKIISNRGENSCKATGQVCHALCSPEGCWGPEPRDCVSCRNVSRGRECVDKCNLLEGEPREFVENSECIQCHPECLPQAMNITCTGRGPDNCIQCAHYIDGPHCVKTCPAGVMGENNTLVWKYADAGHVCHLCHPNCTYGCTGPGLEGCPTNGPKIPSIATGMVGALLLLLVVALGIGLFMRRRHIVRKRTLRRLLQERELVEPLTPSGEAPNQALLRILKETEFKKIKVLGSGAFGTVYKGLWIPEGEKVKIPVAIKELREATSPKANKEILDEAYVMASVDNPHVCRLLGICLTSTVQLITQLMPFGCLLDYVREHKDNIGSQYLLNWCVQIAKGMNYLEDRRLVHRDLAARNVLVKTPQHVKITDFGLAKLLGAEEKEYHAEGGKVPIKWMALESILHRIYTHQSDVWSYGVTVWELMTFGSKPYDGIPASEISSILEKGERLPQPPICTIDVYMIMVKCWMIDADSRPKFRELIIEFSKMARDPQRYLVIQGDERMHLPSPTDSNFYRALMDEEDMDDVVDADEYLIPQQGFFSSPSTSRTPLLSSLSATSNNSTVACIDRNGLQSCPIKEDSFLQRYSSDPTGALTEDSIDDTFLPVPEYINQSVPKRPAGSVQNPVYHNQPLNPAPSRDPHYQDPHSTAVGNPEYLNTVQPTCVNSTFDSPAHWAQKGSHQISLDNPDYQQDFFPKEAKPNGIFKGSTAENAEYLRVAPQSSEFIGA
# method: In vitro kinase assay (HTScan EGFR Kinase Assay Kit)
# Format: biochemical
# condition.parameters: ATP 10 µM; read-out: Enzyme, IC50, µM EGFR
Consider the following compounds and their measured IC50 readings.

For CC(C)(C)OC(=O)N1CCc2c(sc3ncnc(Oc4ccc(NC(=O)C5(C(=O)Nc6ccc(F)cc6)CC5)cc4F)c23)C1 [Compound 13h] , write its IC50.
> 10 µM

With those in mind, consider the next compound.
For COc1cc2ncnc(Oc3ccc(NC(=O)C4(C(=O)Nc5ccc(F)cc5)CC4)cc3F)c2cc1OC [Compound 13b] , write its IC50.
> 10 µM

* * *

# tgt: c-Kit (Homo sapiens)
# Construct: purchased Cell Signaling Technology, Inc
# Sequence (P10721 26-976): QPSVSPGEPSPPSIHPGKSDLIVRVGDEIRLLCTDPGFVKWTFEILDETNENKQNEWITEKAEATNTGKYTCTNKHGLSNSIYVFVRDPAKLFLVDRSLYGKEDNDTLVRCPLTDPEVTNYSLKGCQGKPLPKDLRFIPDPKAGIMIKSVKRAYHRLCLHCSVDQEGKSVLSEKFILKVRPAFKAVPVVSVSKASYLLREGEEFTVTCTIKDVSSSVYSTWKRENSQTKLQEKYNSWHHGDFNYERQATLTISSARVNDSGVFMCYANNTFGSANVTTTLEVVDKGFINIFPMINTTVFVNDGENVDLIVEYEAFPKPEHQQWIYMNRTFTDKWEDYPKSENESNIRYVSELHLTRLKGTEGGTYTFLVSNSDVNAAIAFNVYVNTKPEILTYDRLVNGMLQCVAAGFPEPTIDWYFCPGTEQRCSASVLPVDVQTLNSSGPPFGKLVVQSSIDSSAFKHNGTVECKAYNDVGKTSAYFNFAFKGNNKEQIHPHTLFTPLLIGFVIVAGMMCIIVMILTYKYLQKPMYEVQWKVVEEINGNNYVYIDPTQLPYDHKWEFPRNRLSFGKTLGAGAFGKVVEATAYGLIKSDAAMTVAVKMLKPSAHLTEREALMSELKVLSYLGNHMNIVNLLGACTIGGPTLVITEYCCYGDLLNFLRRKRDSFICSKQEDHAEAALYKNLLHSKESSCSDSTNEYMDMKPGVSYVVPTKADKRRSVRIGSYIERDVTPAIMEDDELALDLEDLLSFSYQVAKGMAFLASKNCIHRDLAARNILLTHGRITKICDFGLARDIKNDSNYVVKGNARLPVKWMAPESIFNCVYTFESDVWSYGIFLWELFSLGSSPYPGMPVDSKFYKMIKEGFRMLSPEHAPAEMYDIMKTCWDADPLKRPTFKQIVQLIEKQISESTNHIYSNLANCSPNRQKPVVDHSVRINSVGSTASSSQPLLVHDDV
# method: In vitro kinase assay (HTScan c-Kit Kinase Assay Kit)
# Type: biochemical
# condition.parameters: ATP 10 µM; read-out: Enzyme, IC50, µM c-Kit
metric: IC50 (µM)

// fetch IC50; item: CC(C)(C)OC(=O)N1CCc2c(sc3ncnc(Oc4ccc(NC(=O)C5(C(=O)Nc6ccc(F)cc6)CC5)cc4F)c23)C1 [Compound 13h] ; system: c-Kit (Homo sapiens)
5.2

// fetch IC50; item: COc1cc2ncnc(Oc3ccc(NC(=O)C4(C(=O)Nc5ccc(F)cc5)CC4)cc3F)c2cc1OC [Compound 13b] ; system: c-Kit (Homo sapiens)
4.3
